test_target: T1, human RXFP1 receptor (human, UniProt Q9HBX9 1-757)
T1 sequence (looked up): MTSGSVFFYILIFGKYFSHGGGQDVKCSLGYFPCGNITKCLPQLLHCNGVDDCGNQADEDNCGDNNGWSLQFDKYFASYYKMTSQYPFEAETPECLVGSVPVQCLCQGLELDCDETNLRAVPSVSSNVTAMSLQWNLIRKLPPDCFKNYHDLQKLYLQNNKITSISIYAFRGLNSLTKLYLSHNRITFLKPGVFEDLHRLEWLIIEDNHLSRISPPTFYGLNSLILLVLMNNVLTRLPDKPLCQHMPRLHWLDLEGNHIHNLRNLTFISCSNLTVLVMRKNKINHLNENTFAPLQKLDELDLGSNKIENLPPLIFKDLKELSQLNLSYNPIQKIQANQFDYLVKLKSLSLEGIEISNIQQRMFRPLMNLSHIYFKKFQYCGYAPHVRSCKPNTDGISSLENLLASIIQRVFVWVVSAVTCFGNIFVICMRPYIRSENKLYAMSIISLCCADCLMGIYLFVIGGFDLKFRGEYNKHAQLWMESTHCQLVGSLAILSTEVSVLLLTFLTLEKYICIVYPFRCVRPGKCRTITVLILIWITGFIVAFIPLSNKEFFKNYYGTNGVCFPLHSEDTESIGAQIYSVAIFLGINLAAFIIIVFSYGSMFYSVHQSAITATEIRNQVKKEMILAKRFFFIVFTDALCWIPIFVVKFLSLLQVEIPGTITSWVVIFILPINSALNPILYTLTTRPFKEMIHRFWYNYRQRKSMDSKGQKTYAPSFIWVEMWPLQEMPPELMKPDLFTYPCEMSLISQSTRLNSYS
assay_info: cell-based or functional assay
Overview of reported hRXFP1/CHO-K1 cAMP EC50 (nM, avg) across a group of binders:
State the answer as a number, implicitly in nM.

Below, 2 binders whose answers are already recorded.
>  <binder>
AQ1-dKdKdKdKdKdK-Glu^γ-C13-COOH (ligand, not fully specified; dK = D-lysine (six); Glu^γ bonded by amide to fatty acid -C13-COOH; oxime-linked to pAcF of the A chain; pAcF (para-acetyl-L-phenylalanine) at position 1, oxime-linked to PK enhancer dKdKdKdKdKdK-Glu^γ-C13-COOH) chain 1: XLYSALANKCCHVGCTKRSLARFC chain 2: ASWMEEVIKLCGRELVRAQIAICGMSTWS peptide: KKKKKKE

>  <value_units>
nM

>  <hRXFP1/CHO-K1 cAMP EC50 (nM, avg)>
0.1

$$$$
>  <binder>
AQ1-Spermine-Glu^γ-C14-COOH (ligand, not fully specified; pAcF (para-acetyl-L-phenylalanine) at position 1, oxime-linked to PK enhancer Spermine-Glu^γ-C14-COOH (compound 27 of Example 6)) chain 1: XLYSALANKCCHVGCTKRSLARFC chain 2: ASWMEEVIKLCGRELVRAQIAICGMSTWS

>  <value_units>
nM

>  <hRXFP1/CHO-K1 cAMP EC50 (nM, avg)>
0.39

$$$$

Please look at the following binder next.
What does the record list as hRXFP1/CHO-K1 cAMP EC50 (nM, avg) for AQ1-KKSGGSGGEE-Glu^γ-C13-COOH (ligand, not fully specified; Glu^γ bonded by amide to fatty acid -C13-COOH; oxime-linked to pAcF of the A chain; pAcF (para-acetyl-L-phenylalanine) at position 1, oxime-linked to PK enhancer KKSGGSGGEE-Glu^γ-C13-COOH) chain 1: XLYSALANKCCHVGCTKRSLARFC chain 2: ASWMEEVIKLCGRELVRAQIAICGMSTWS peptide: KKSGGSGGEEE ?
0.16
